Taken from paper PMC9772450.

assay: Visual (tube-tapping) assay of gel-forming capability and solubility; type: physicochemical; design: key: Y: can form a liquid gel; N: lacks the ability to efficiently form a liquid gel; settings: visual inspection of 11% peptide solutions, tube-tapping, 20 min after mixing
Non-standard residues stand in square brackets, D forms with d. Residues, ends and D or L forms follow the SMILES beside them. *: point of attachment. Palmitoyl = CCCCCCCCCCCCCCCC(=O)*; Aib = CC(C)(N)C(=O)O
recorded.endpoint: Gel-forming ability

compound: CCCCCCCCCCCCCCCC(=O)N[C@@H](CCCCN)C(=O)N[C@H](C(=O)N[C@@H](CCC(N)=O)C(=O)N[C@@H](CCCCNC(=O)CCS)C(=O)N[C@@H](CC(C)C)C(=O)N[C@@H](CO)C(=O)N[C@@H](C)C(=O)N1CCC[C@H]1C(=O)N[C@H](C(=O)N[C@@H](CC(=O)O)C(=O)N1CCC[C@H]1C(=O)N[C@@H](CO)C(=O)N[C@@H](CO)C(=O)N1CCC[C@H]1C(=O)N[C@@H](Cc1c[nH]cn1)C(=O)N[C@@H](CO)C(=O)N[C@@H](Cc1ccc(O)cc1)C(N)=O)C(C)C)C(C)C [ADE651O]
recorded.value: Y
//
compound: CCCCCCCCCCCCCCCC(=O)N[C@@H](CCCCN)C(=O)N[C@H](C(=O)N[C@@H](CCC(N)=O)C(=O)N[C@@H](CCCCN)C(=O)N[C@@H](CC(C)C)C(=O)N[C@@H](CO)C(=O)N[C@@H](C)C(=O)N1CCC[C@H]1C(=O)N[C@H](C(=O)N[C@@H](CC(=O)O)C(=O)N1CCC[C@H]1C(=O)N[C@@H](CO)C(=O)N[C@@H](CO)C(=O)N1CCC[C@H]1C(=O)N[C@@H](Cc1c[nH]cn1)C(=O)N[C@@H](CO)C(=O)N[C@@H](Cc1ccc(O)cc1)C(N)=O)C(C)C)C(C)C
recorded.value: Y
//
compound: CCCCCCCCCCCCCCCC(=O)N[C@@H](CCCCN)C(=O)N[C@H](C(=O)N[C@@H](CCC(N)=O)C(=O)N[C@@H](CCCCN)C(=O)NC(C)(C)C(=O)N[C@@H](CO)C(=O)N[C@@H](C)C(=O)N1CCC[C@H]1C(=O)N[C@H](C(=O)N[C@@H](CC(=O)O)C(=O)N1CCC[C@H]1C(=O)N[C@@H](CO)C(=O)N[C@@H](CO)C(=O)N1CCC[C@H]1C(=O)N[C@@H](Cc1c[nH]cn1)C(=O)N[C@@H](CO)C(=O)N[C@@H](Cc1ccc(O)cc1)C(N)=O)C(C)C)C(C)C [ADE651A] (Palmitoyl-KVQK[Aib]SAPVDPSSPHSY-NH2)
recorded.value: N

====

assay: Visual (tube-tapping) assay of gel-forming capability and solubility; type: physicochemical; parameters: key: Y: can form a liquid gel; N: lacks the ability to efficiently form a liquid gel; details: visual inspection of 11% peptide solutions, tube-tapping, 20 min after mixing
Non-standard residues stand in square brackets, D forms with d. Residues, ends and D or L forms follow the SMILES beside them. *: point of attachment. Arg(Me) = CNC(=N)NCCC[C@H](N)C(=O)O; Palmitoyl = CCCCCCCCCCCCCCCC(=O)*; Cit = NC(=O)NCCC[C@H](N)C(=O)O; Nva = CCC[C@H](N)C(=O)O; βAla = NCCC(=O)O

compound: CCCCCCCCCCCCCCCC(=O)N[C@@H](CCCCN)C(=O)N[C@H](C(=O)N[C@@H](CCC(N)=O)C(=O)N[C@@H](CCCCN)C(=O)N[C@@H](CCCNC(N)=O)C(=O)N[C@@H](CO)C(=O)N[C@@H](C)C(=O)N1CCC[C@H]1C(=O)N[C@H](C(=O)N[C@@H](CC(=O)O)C(=O)N1CCC[C@H]1C(=O)N[C@@H](CO)C(=O)N[C@@H](CO)C(=O)N1CCC[C@H]1C(=O)N[C@@H](Cc1c[nH]cn1)C(=O)N[C@@H](CO)C(=O)N[C@@H](Cc1ccc(O)cc1)C(N)=O)C(C)C)C(C)C [ADE651D] (Palmitoyl-KVQK[Cit]SAPVDPSSPHSY-NH2)
Gel-forming ability: N
--
compound: CCCCCCCCCCCCCCCC(=O)N[C@@H](CCCCN)C(=O)N[C@H](C(=O)N[C@@H](CCC(N)=O)C(=O)N[C@@H](CCCNC(=N)NC)C(=O)N[C@@H](CC(C)C)C(=O)N[C@@H](CO)C(=O)N[C@@H](C)C(=O)N1CCC[C@H]1C(=O)N[C@H](C(=O)N[C@@H](CC(=O)O)C(=O)N1CCC[C@H]1C(=O)N[C@@H](CO)C(=O)N[C@@H](CO)C(=O)N1CCC[C@H]1C(=O)N[C@@H](Cc1c[nH]cn1)C(=O)N[C@@H](CO)C(=O)N[C@@H](Cc1ccc(O)cc1)C(N)=O)C(C)C)C(C)C [ADE651M] (Palmitoyl-KVQ[Arg(Me)]LSAPVDPSSPHSY-NH2)
Gel-forming ability: Y
--
compound: CCCCCCCCCCCCCCCC(=O)N[C@@H](CCCCN)C(=O)N[C@H](C(=O)N[C@@H](CCC(N)=O)C(=O)N[C@@H](CCCCN)C(=O)N[C@@H](CCC)C(=O)N[C@@H](CO)C(=O)N[C@@H](C)C(=O)N1CCC[C@H]1C(=O)N[C@H](C(=O)N[C@@H](CC(=O)O)C(=O)N1CCC[C@H]1C(=O)N[C@@H](CO)C(=O)N[C@@H](CO)C(=O)N1CCC[C@H]1C(=O)N[C@@H](Cc1c[nH]cn1)C(=O)N[C@@H](CO)C(=O)N[C@@H](Cc1ccc(O)cc1)C(N)=O)C(C)C)C(C)C [ADE651C] (Palmitoyl-KVQK[Nva]SAPVDPSSPHSY-NH2)
Gel-forming ability: Y
--
compound: CCCCCCCCCCCCCCCC(=O)N[C@@H](CCCCN)C(=O)N[C@H](C(=O)N[C@@H](CCC(N)=O)C(=O)N[C@@H](CCCCN)C(=O)NCCC(=O)N[C@@H](CO)C(=O)N[C@@H](C)C(=O)N1CCC[C@H]1C(=O)N[C@H](C(=O)N[C@@H](CC(=O)O)C(=O)N1CCC[C@H]1C(=O)N[C@@H](CO)C(=O)N[C@@H](CO)C(=O)N1CCC[C@H]1C(=O)N[C@@H](Cc1c[nH]cn1)C(=O)N[C@@H](CO)C(=O)N[C@@H](Cc1ccc(O)cc1)C(N)=O)C(C)C)C(C)C [ADE651P] (Palmitoyl-KVQK[βAla]SAPVDPSSPHSY-NH2)
Gel-forming ability: N

====

target: CLR/RAMP1 receptor (Homo sapiens, UniProt O60894+Q16602); construct: host or cells: CHO-K1 (cAMP Hunter cell line); test: HitHunter cAMP XS+ CALCRL-RAMP1 cAMP assay, antagonist mode; type: cell-based; conditions: antagonist mode, β-CGRP at EC80; 10-point curve, duplicate
Sequence (Q16602 23-461): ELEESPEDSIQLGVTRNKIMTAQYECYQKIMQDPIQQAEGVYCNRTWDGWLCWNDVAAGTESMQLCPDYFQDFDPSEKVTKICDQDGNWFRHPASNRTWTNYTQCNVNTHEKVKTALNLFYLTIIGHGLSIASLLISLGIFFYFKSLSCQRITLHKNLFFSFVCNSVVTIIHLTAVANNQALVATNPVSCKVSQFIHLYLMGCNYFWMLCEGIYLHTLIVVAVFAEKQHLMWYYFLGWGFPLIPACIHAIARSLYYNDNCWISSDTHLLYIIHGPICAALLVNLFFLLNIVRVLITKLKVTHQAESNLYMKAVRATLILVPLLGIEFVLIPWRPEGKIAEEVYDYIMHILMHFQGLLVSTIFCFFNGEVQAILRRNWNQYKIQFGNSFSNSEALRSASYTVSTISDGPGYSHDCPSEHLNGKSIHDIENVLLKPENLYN
Sequence (O60894 27-148): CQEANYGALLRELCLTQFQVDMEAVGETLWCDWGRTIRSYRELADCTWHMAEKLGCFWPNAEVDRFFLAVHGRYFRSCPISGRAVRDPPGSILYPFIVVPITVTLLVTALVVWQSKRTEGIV
recorded.endpoint: Maximum response

Inquiry: Report Maximum response from CLR/RAMP1 receptor (Homo sapiens, UniProt O60894+Q16602) testing of NCCCC[C@H](NC(=O)[C@@H](Cc1cc(Br)c(O)c(Br)c1)NC(=O)N1CCC(N2Cc3ccccc3NC2=O)CC1)C(=O)N1CCN(c2ccncc2)CC1 [BIBN4096, reference compound]
Reply text: 100.5 % of positive control
